test-system: PfPRS (Plasmodium falciparum)
Sequence (Q8I5R7 250-746 limits assumed): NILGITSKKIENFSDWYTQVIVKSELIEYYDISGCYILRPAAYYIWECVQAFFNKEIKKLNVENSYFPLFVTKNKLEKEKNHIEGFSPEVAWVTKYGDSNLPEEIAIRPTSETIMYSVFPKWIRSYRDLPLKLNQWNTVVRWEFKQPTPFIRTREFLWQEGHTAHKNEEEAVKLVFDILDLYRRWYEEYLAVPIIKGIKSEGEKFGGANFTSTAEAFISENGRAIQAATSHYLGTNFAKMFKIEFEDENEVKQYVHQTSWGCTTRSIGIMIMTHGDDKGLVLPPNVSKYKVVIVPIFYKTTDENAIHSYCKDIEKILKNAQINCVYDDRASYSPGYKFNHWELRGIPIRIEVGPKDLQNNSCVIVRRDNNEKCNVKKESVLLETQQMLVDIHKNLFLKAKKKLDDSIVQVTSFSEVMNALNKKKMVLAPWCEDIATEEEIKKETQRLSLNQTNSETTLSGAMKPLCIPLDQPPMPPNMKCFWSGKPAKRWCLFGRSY
assay-remarks: Microscale thermophoresis
Format: binding
particulars: Kd-Pf, replicate n = 2, MST, individual replicate 2
endpoint-label: Kd (nM)

[[record]]
molecule = "O=C(CC1NCCCC1O)Cn1cnc2cc(Br)c(Cl)cc2c1=O (stereo not shown) [HFG, Halofuginone]"
endpoint_label = "Kd"
value_observed = 72.9


* * *

test-system: HsPRS (Homo sapiens, UniProt P07814)
assay-remarks: Microscale thermophoresis
Assay type: binding
particulars: Kd-Hs, replicate n = 1, MST, individual replicate 1
endpoint-label: Kd

[[record]]
compound = "O=C(CC1NCCCC1O)Cn1cnc2cc(Br)c(Cl)cc2c1=O (stereo not shown)"
value_observed = "42.4 nM"


* * *

test-system: HsPRS (Homo sapiens, UniProt P07814)
Sequence (P07814 1007-1512 limits assumed): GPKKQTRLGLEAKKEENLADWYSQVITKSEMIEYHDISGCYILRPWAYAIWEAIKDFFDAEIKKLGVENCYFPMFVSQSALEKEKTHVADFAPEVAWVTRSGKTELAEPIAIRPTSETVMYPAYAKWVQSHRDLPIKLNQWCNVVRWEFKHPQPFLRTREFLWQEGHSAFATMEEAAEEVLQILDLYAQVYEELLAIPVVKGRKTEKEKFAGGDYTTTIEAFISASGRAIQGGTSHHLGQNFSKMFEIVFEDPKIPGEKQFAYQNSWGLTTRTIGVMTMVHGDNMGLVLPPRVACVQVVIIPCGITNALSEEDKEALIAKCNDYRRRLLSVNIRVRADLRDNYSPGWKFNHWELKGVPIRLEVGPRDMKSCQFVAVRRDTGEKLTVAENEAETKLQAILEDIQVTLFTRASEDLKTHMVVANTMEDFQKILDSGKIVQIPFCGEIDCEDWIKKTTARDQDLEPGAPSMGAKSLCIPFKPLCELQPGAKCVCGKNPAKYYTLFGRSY
assay-remarks: Microscale thermophoresis
Assay type: binding
particulars: Kd-Hs, replicate n = 2, MST, individual replicate 2
endpoint-label: Kd (nM)

[[record]]
compound = "O=C(CC1NCCCC1O)Cn1cnc2cc(Br)c(Cl)cc2c1=O (stereo not shown)"
endpoint_label = "Kd"
value_observed = 61.9


* * *

test-system: HsPRS (Homo sapiens, UniProt P07814)
pIC50: −log10 of the molar value.
endpoint-label: pIC50

[[record]]
molecule = "O=C(CC1NCCCC1O)Cn1cnc2cc(Br)c(Cl)cc2c1=O (stereo not shown) [HFG, Halofuginone]"
endpoint_label = "pIC50"
value_observed = 7.96

